# protocol_description: Cmax in mice at 100 mg/kg, iv
# Format: ADME, organism-based
# Design: dose 100 mg/kg, route intravenous
# condition_description: Swiss Webster, mouse, in vivo
quantity: Cmax (µg/mL)
State the answer as a number, implicitly in µg/mL.

Exercise: Give its Cmax value. Item: "CCc1cc(Nc2cc(=O)n(CCCCN3CCN(c4cc5c(cc4F)c(=O)c(C(=O)O)cn5C4CC4)CC3)c(=O)[nH]2)ccc1C"
Solution: 213

---

# measured_on: DNA polymerase III PolC-type (Bacillus subtilis (strain 168))
# Sequence (P13267 whole entry): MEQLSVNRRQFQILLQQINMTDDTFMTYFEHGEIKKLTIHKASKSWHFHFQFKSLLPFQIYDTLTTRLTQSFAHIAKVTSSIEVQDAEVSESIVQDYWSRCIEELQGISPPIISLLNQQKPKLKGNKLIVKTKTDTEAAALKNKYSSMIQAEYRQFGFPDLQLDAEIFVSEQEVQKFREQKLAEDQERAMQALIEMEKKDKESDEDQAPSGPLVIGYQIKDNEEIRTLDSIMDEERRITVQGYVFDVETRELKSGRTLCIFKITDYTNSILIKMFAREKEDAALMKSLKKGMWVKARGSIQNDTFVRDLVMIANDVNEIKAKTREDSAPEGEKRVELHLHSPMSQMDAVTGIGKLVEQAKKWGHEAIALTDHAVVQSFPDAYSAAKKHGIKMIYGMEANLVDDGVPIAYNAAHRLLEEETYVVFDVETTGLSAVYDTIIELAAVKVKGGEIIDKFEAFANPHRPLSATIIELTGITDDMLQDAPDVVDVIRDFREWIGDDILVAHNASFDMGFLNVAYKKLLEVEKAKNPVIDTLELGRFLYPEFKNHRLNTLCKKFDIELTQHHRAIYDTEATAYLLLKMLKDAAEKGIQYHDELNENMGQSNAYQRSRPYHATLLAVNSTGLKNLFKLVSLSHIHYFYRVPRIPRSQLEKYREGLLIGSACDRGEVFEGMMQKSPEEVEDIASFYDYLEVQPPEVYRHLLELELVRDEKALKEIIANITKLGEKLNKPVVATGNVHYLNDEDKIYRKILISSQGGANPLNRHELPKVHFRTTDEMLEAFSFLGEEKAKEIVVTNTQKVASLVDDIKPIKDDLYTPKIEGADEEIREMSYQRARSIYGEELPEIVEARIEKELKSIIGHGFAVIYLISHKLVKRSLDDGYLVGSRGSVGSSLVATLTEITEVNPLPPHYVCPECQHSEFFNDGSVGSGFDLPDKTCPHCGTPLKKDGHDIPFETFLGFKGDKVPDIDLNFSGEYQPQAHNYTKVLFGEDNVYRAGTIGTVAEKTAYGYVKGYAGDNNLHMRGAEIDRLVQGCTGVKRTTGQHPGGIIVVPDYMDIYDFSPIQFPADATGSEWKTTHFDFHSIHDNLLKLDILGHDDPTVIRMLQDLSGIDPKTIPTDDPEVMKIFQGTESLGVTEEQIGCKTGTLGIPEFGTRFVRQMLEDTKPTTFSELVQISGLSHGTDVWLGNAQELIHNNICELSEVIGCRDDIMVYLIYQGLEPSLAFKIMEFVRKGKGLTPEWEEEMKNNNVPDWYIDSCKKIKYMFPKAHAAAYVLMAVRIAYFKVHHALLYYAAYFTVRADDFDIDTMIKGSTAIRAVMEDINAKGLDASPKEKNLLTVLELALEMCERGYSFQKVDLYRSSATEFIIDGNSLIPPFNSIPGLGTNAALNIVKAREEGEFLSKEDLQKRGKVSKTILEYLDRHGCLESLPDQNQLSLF
# protocol_description: Binding affinity to Bacillus subtilis DNA polymerase3C
# condition_description: read-out: Ki
Recorded Ki split into classes bottom: < 10 nM; middle: ≥ 10 nM and < 30 nM; top: ≥ 30 nM

Observe how each entry below is paired with its result.
                                   molecule  category
0  O=C(O)c1cn(C2CC2)c2cc(N3CCN(CCCCn4c(=O)cc(Nc5ccccc5)[nH]c4=O)CC3)c(F)cc2c1=O       top
1  CCc1cc(Nc2cc(=O)n(CCCCCN3CC4CCCN(c5cc6c(cc5F)c(=O)c(C(=O)O)cn6C5CC5)C4C3)c(=O)[nH]2)ccc1C (stereo not drawn)       top

Below: the item to evaluate.
Exercise: Lab log: "CCc1cc(Nc2cc(=O)n(CCCCN3CCN(c4c(F)cc5c(=O)c(C(=O)O)cn(C6CC6)c5c4F)C[C@H]3C)c(=O)[nH]2)ccc1C" — assign Ki category
Solution: bottom

---

The entries below come with measured log10 of MIC values attached.
# Tested on: Staphylococcus aureus
# protocol_description: Antibacterial activity against Staphylococcus aureus smith
# Assay type: functional
Values reflect log10 of reported MIC (µg/mL).

Known log10 of MIC results, listed for orientation:
>>> print(df.to_string())
                                   compound      quantity  numeric_readout
0  CCc1cc(Nc2cc(=O)n(CCCCCN3CC4OCCN(c5cc6c(cc5F)c(=O)c(C(=O)O)cn6C5CC5)C4C3)c(=O)[nH]2)ccc1C (centres undefined)  log10 of MIC            -0.20
1  CC(=O)NC[C@H]1CN(c2ccc(N3CCOCC3)c(F)c2)C(=O)O1  log10 of MIC             0.40
2  CCc1cc(Nc2cc(=O)n(CCCCO)c(=O)[nH]2)ccc1C  log10 of MIC             0.70

Exercise: Report log10 of MIC for "CCc1cc(Nc2cc(=O)n(CCCCN3CCN(c4c(F)cc5c(=O)c(C(=O)O)cn(C6CC6)c5c4OC)CC3)c(=O)[nH]2)ccc1C" please.
Solution: -0.50

Exercise: Sample CCc1cc(Nc2cc(=O)n(CCCCCN3CC4CCCN(c5cc6c(cc5F)c(=O)c(C(=O)O)cn6CC)C4C3)c(=O)[nH]2)ccc1C (centres undefined) — what was its log10 of MIC?
Solution: 0.70

Exercise: Fill blank: measured log10 of MIC of the compound "CCc1cc(Nc2cc(=O)n(CCCCN3CCN(c4cc5c(cc4F)c(=O)c(C(=O)O)cn5C(C)(C)C)CC3)c(=O)[nH]2)ccc1C.Cl" is ____.
Solution: -0.20

Exercise: Param item = "O=C(O)c1cn(C2CC2)c2cc(N3CCN(CCCCn4c(=O)cc(Nc5ccccc5)[nH]c4=O)CC3)c(F)cc2c1=O" ; retrieve measured log10 of MIC.
Solution: 0.40

Exercise: I have this compound here, "CCc1cc(Nc2cc(=O)n(CCCCCN3CCN(c4cc5c(cc4F)c(=O)c(C(=O)O)cn5C4CC4)CC3)c(=O)[nH]2)ccc1C" , and I need its recorded log10 of MIC.
Solution: 0.10

Exercise: Requested read-out: log10 of MIC. Entry: "CCc1cc(Nc2cc(=O)n(CCCCN3CCN(c4c(F)cc5c(=O)c(C(=O)O)cn(C6CC6)c5c4Cl)CC3)c(=O)[nH]2)ccc1C"
Solution: -0.81

Exercise: Bench note: what log10 of MIC did CCc1cc(Nc2cc(=O)n(CCCCCN3CC4CCCN(c5cc6c(cc5F)c(=O)c(C(=O)O)cn6C5CC5)C4C3)c(=O)[nH]2)ccc1C (centres undefined) show?
Solution: 0.10
